- TEST TARGET: HDM2 (truncated, residues 17 to 125, containing p53 binding surface) (Homo sapiens (Human))
- Sequence (Q00987 17-125): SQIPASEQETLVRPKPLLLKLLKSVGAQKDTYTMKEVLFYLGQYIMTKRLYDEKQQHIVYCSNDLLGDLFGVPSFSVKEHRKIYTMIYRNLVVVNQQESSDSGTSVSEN
- PROTOCOL TEXT: HDM2 FRET assay (inhibition of binding of FITC labeled p53-site peptide to HDM2)
- CONDITIONS USED: Table 23
Measured pIC50 accompanies every entry in the list below.
For clarity, pIC50 is expressed as the negative log10 of concentration in mol/L.

Reference set, count: 3
CC(C)(C)C(C)(F)c1nc2nc(-c3noc(=O)[nH]3)nc(-c3cncc(Cl)c3)c2n1C[C@H]1CC[C@H](C)CC1 (mixture of isomers)    7.89
CC1COCCC1(F)c1nc2nc(-c3noc(=O)[nH]3)nc(-c3cncc(Cl)c3)c2n1C[C@H]1CC[C@H](C)CC1 (single isomer, unassigned) [Example 23.95]    8.36
COC(C)(c1c(F)cccc1F)c1nc2nc(-c3n[nH]c(=O)o3)nc(-c3cncc(Cl)c3)c2n1C[C@H]1CC[C@H](C)CC1 (single isomer, unassigned) [Example 23.88]    9.22

For this compound ( CC(F)(c1ccccn1)c1nc2nc(-c3noc(=O)[nH]3)nc(-c3cccc(Cl)c3)c2n1C[C@H]1CC[C@H](C)CC1 (single isomer, unassigned) [Example 23.31] ), measured pIC50 is 8.43

For this compound ( COC(C)(c1ccccc1F)c1nc2nc(-c3noc(=O)[nH]3)nc(-c3cncc(Cl)c3)c2n1C[C@H]1CC[C@H](C)CC1 (single isomer, unassigned) ), measured pIC50 is 8.18

For this compound ( CC(F)(c1ccccc1C#N)c1nc2nc(-c3noc(=O)[nH]3)nc(-c3cncc(Cl)c3)c2n1C[C@H]1CC[C@H](C)CC1 (mixture of isomers) ), measured pIC50 is 9.29

For this compound ( CC(c1ccccc1F)c1nc2nc(-c3noc(=O)[nH]3)nc(-c3cncc(Cl)c3)c2n1C[C@H]1CC[C@H](C)CC1 (mixture of isomers) ), measured pIC50 is 8.86

For this compound ( COC(c1nc2nc(-c3n[nH]c(=O)o3)nc(-c3cncc(Cl)c3)c2n1C[C@H]1CC[C@H](C)CC1)C1CCOCC1 (mixture of isomers) ), measured pIC50 is 7.56

For this compound ( COC(C)(c1nc2nc(-c3noc(=O)[nH]3)nc(-c3cncc(Cl)c3)c2n1C[C@H]1CC[C@H](C)CC1)C1CCCC1 (mixture of isomers) ), measured pIC50 is 8.89

For this compound ( COC(c1nc2nc(-c3n[nH]c(=O)o3)nc(-c3cncc(Cl)c3)c2n1C[C@H]1CC[C@H](C)CC1)C1CCCCC1 (mixture of isomers) ), measured pIC50 is 7.92

For this compound ( CC(F)(c1ccccc1F)c1nc2nc(-c3noc(=O)[nH]3)nc(-c3cncc(Cl)c3)c2n1C[C@H]1CC[C@H](C)CC1 (single isomer, unassigned) [Example 23.35] ), measured pIC50 is 9.37

###

- TEST TARGET: HDM2 (truncated, residues 17 to 125, containing p53 binding surface) (Homo sapiens (Human))
- PROTOCOL TEXT: HDM2 FRET assay (inhibition of binding of FITC labeled p53-site peptide to HDM2)
- CONDITIONS USED: Table 18
RECORDED METRIC: IC50 (nM)
Answer with a number only, understood to be in nM.

CC([C@H]1CC[C@H](C)CC1)n1c(N2CCOC3CCCC32)nc2nc(-c3noc(=O)[nH]3)nc(-c3cccc(Cl)c3)c21 (single isomer, unassigned) [Example 18.37]    2.21
CC([C@H]1CC[C@H](C)CC1)n1c(N2CCOC3CCCC32)nc2nc(-c3noc(=O)[nH]3)nc(-c3cccc(Cl)c3)c21 (single isomer, unassigned) [Example 18.40]    7.86
CC([C@H]1CC[C@H](C)CC1)n1c(N2CCOC3CCCC32)nc2nc(-c3n[nH]c(=O)o3)nc(-c3cccc(Cl)c3)c21 (single isomer, unassigned) [Example 18.43]    14
CC(C)c1ccnc(-c2nc3nc(-c4noc(=O)[nH]4)nc(N[C@H](C)C4CCC4)c3n2C[C@@H]2CC[C@@H](C)C(F)(F)C2)c1 (stereo in doubt) [Example 18.11]    2.79

For this molecule ( CC([C@H]1CC[C@H](C)CC1)n1c(N2CCOC3CCCC32)nc2nc(-c3noc(=O)[nH]3)nc(-c3cncc(Cl)c3)c21 (single isomer, unassigned) [Example 18.53] ), measured IC50 is 7.36

For this molecule ( CC([C@H]1CC[C@H](C)CC1)n1c(N2CCOC3CCCC32)nc2nc(-c3noc(=O)[nH]3)nc(-c3cncc(Cl)c3)c21 (single isomer, unassigned) [Example 18.52] ), measured IC50 is 5.44

For this molecule ( CC([C@H]1CC[C@H](C)CC1)n1c(N2CCOC3CCCC32)nc2nc(-c3n[nH]c(=O)o3)nc(-c3cccc(Cl)c3)c21 (single isomer, unassigned) [Example 18.39] ), measured IC50 is 3.73

###

- TEST TARGET: HDM2 (truncated, residues 17 to 125, containing p53 binding surface) (Homo sapiens (Human))
- PROTOCOL TEXT: HDM2 FRET assay (inhibition of binding of FITC labeled p53-site peptide to HDM2)
- CONDITIONS USED: Table 23
RECORDED METRIC: pIC50
For clarity, pIC50 is expressed as the negative log10 of concentration in mol/L.

COC(c1nc2nc(-c3n[nH]c(=O)o3)nc(-c3cncc(Cl)c3)c2n1C[C@H]1CC[C@H](C)CC1)C1CCCC1 (mixture of isomers) [Example 23.23]    8.06
COC(C)(c1ncoc1C)c1nc2nc(-c3noc(=O)[nH]3)nc(-c3cccc(Cl)c3)c2n1C[C@H]1CC[C@H](C)CC1 (mixture of isomers) [Example 23.57]    8.68
CC(F)(c1ccccc1F)c1nc2nc(-c3n[nH]c(=O)o3)nc(-c3cncc(Cl)c3)c2n1C[C@H]1CC[C@H](C)CC1 (single isomer, unassigned) [Example 23.32]    7.79
C[C@H]1CC[C@H](Cn2c(C3(F)CCOc4cccnc43)nc3nc(-c4n[nH]c(=O)o4)nc(-c4cncc(Cl)c4)c32)CC1 (mixture of isomers) [Example 23.92]    8.61
CC1CCCCC1(F)c1nc2nc(-c3n[nH]c(=O)o3)nc(-c3cncc(Cl)c3)c2n1C[C@H]1CC[C@H](C)CC1 (single isomer, unassigned) [Example 23.83]    8.20
CC(F)(c1c(F)cccc1F)c1nc2nc(-c3n[nH]c(=O)o3)nc(-c3cncc(Cl)c3)c2n1C[C@H]1CC[C@H](C)CC1 (single isomer, unassigned) [Example 23.80]    7.97
COC(C)(c1nc2nc(-c3n[nH]c(=O)o3)nc(-c3cncc(Cl)c3)c2n1C[C@H]1CC[C@H](C)CC1)C1CCCC1 (mixture of isomers) [Example 23.72]    8.59
COC(c1nc2nc(-c3noc(=O)[nH]3)nc(-c3cncc(Cl)c3)c2n1C[C@H]1CC[C@H](C)CC1)C1CCOCC1 (mixture of isomers) [Example 23.18]    7.62

For this molecule ( COC(C)(c1cccc(Cl)c1F)c1nc2nc(-c3n[nH]c(=O)o3)nc(-c3cncc(Cl)c3)c2n1C[C@H]1CC[C@H](C)CC1 (single isomer, unassigned) [Example 23.73] ), measured pIC50 is 9.21

For this molecule ( CC(F)(c1ncccc1F)c1nc2nc(-c3n[nH]c(=O)o3)nc(-c3cncc(Cl)c3)c2n1C[C@H]1CC[C@H](C)CC1 (single isomer, unassigned) [Example 23.85] ), measured pIC50 is 9.44

For this molecule ( CC(F)(c1ccccc1F)c1nc2nc(-c3n[nH]c(=O)o3)nc(-c3cncc(Cl)c3)c2n1C[C@H]1CC[C@H](C)CC1 (single isomer, unassigned) [Example 23.33] ), measured pIC50 is 9.34

Sourced from patent US9540377B2
